- ASSAY_TARGET: Bs-CspB (Bacillus subtilis, UniProt P32081 1-67)
- TEST_DETAILS: tryptophan fluorescence quenching
READOUT: Kd (nM)
Report the figure in nM without appending any unit label.

Please review the entries below; each comes with its answer.
[[record]]
binder = "TTATTAG (ssDNA) [dcb1]"
number = 20

[[record]]
binder = "TTTTTT (ssDNA) [dT6]"
number = 326

[[record]]
binder = "CCCCCC (ssDNA) [dC6]"
number = 12600


Looking for the measured Kd of ATTGG (ssDNA) [Y-box5] , can you help?
5300

These entries and their values trace back to paper PMC1636342.
